Listed below: protein stability index values for each entry.
B1: NP_015628.1 (parent)
chain: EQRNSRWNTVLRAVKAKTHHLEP

Variants of: B1
Assay comment: protein stability index of a GFP-peptide fusion (GPS, HEK-293T) (PSI 1-6); higher = more stable;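 also: lentivirally expressed fusion library, cells FACS-sorted into six equal-sized GFP/DsRed ratio bins, PSI computed from sequencing read fractions per bin weighted by bin number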
Experimental parameters: c terminus: native
API doc: respond with a numeric literal and nothing else, no unit.

Consider the reported protein stability index for these variants:
>>> observed("L11V")
2.5
>>> observed("W7F")
4.71
>>> observed("P23L")
4.39
>>> observed("V10R")
2.77
>>> observed("T9A")
3.31

Task item: Param item = `L11H` ; retrieve measured protein stability index.
Reply: 4.49

Task item: And the next one, `E22I` ?
Reply: 2.45

Task item: And the next one, `E1C` ?
Reply: 2.79

Task item: And the next one, `R12Q` ?
Reply: 2.71

Task item: And the next one, `V14D` ?
Reply: 2.89

Task item: And the next one, `R6P` ?
Reply: 2.51

Task item: And the next one, `T18C` ?
Reply: 2.5

Task item: And the next one, `V10S` ?
Reply: 3.63

Task item: And the next one, `A16W` ?
Reply: 2.92

Task item: And the next one, `A13H` ?
Reply: 2.94
